Target: cAMP phosphodiesterase (human platelets) (Homo sapiens, UniProt Q14432)
Construct: enzynme obtained from human platelets; from tissue; host or cells: human platelets
Sequence (Q14432 whole entry): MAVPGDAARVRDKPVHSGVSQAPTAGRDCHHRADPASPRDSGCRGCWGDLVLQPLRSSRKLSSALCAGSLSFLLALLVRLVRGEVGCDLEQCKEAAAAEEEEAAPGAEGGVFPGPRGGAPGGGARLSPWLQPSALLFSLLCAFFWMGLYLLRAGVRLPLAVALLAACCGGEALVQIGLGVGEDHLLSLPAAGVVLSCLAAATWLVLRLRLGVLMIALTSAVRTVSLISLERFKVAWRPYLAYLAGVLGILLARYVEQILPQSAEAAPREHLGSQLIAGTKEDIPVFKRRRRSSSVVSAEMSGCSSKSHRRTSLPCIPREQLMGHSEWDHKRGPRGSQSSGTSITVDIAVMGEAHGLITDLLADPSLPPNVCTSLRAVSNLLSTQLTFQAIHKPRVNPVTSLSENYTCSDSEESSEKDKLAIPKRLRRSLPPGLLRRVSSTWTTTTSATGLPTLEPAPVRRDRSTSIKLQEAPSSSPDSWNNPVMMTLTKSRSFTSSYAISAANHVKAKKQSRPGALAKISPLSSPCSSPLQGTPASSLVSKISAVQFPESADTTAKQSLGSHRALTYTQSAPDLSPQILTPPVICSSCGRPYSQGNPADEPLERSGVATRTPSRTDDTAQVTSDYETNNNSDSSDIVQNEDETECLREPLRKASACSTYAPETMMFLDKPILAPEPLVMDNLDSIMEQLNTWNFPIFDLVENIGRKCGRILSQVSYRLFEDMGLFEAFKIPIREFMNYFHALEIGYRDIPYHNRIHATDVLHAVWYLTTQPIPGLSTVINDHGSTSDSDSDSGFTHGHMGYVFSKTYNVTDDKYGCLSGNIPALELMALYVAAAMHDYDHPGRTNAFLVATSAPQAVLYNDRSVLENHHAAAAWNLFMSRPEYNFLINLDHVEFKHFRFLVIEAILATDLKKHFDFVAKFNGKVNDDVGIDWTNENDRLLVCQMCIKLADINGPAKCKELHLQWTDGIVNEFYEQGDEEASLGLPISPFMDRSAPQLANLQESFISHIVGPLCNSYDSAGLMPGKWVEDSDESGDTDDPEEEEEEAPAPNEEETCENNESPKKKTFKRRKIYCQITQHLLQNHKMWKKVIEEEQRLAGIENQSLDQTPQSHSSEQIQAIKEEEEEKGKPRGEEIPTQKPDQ
Assay: Inhibition of cyclic AMP phosphodiesterase
Format: biochemical
Details: PDE from human platelets
Method: This assay is carried out essentially as described by Thompson, et al., Methods in Enzymology, 38, 205-212 (1974). […] The tubes are centrifuged to sediment the resin and a portion of the clear supernatent (which contains radioactive adenosine) is counted in a liquid scintillation counter. The cAMP phosphodiesterase inhibition activity of a test agent is determined by pre-incubating the PDE enzyme preparation with the test agent.
Note that class boundaries on IC50 are bucket A = under 2 nM, bucket B = from 2 nM up to 400 nM, bucket C = 400 nM and over

# count of solved cases: 5
>  <molecule>
Cn1c(=O)[nH]c2nc3ccc(OCCCC(=O)NC4CCCCC4)cc3cc21 [Example 19]

>  <classification>
bucket C

$$$$
>  <molecule>
CC(C)N1CC(COc2ccc3nc4[nH]c(=O)[nH]c4cc3c2)OC1=O (stereo not drawn) [Example 41]

>  <classification>
bucket B

$$$$
>  <molecule>
Oc1nc2cc3cc(OCCCCc4nnnn4C4CCCCC4)ccc3[nH]c-2n1 [Example 36]

>  <classification>
bucket B

$$$$
>  <molecule>
CN(C(=O)CCCCOc1ccc2nc3nc(O)n(C)c3cc2c1)C1CCCCC1 [Example 27]

>  <classification>
bucket C

$$$$
>  <molecule>
CN(C(=O)CCCCOc1ccc2nc3[nH]c(=O)n(C)c3cc2c1)C1CCCCCC1 [Example 28]

>  <classification>
bucket C

$$$$

Quick check: band for COC(=O)CN(C(=O)CCCOc1ccc2nc3[nH]c(=O)[nH]c3cc2c1)C1CCCCC1 [Example 21]
bucket A

Class? Entry: CN(C(=O)CCCCOc1ccc2nc3[nH]c(=O)[nH]c3cc2c1)C1CCCCCC1 [Example 33]
bucket A

Which IC50 category applies to O=C(CCCOc1ccc2nc3[nH]c(=O)[nH]c3cc2c1)NC12CC3CC(CC(C3)C1)C2 [Example 16] here?
bucket A

The entry to classify is Cn1c(O)nc2nc3ccc(OCCCCC(=O)O)cc3cc21 [Example 9] ; which class holds it?
bucket C

Class (by measured IC50) for O=c1[nH]c2cc3cc(OCCCCS(=O)(=O)c4ccccc4)ccc3nc2[nH]1 [Example 35]
bucket A

---

Tested on: ferrets (right ventricular contractile force, blood pressure)
Experiment: In vivo inotropic activity in ferrets
Design: species or system ferret
Conditions: Mustela putorius, 1 h; anesthetized ferret, intraduodenal, 3 mg/kg, 60 minutes; read-out: Maximum Percentage Change Blood Pressure
recorded-metric: change in vivo at 3 mg/kg (%)
Numbers only, in %.

Need change in vivo at 3 mg/kg for each of these compounds.
1. CN(C(=O)CCCCOc1ccc2nc3nc(O)n(C)c3cc2c1)C1CCCCC1 [Example 27]
2. CN(C(=O)CCCOc1ccc2nc3[nH]c(=O)[nH]c3cc2c1)C1CCCCC1 [Example 30]
3. O=C(CCCOc1ccc2nc3[nH]c(=O)[nH]c3cc2c1)N1CCCCC1 [Example 24]
4. O=C(O)CCCOc1ccc2nc3[nH]c(=O)[nH]c3cc2c1 [Example 4]
5. COC(=O)CCCOc1ccc2nc3[nH]c(=O)n(C)c3cc2c1 [Example 11]
6. O=C(CCCOc1ccc2nc3[nH]c(=O)[nH]c3cc2c1)NC12CC3CC(CC(C3)C1)C2 [Example 16]

1: -24; 2: -30; 3: -19; 4: -3; 5: -4; 6: -10

Here are 5 compounds. What values of change in vivo at 3 mg/kg were reported for them?
1. COC(=O)CCCOc1ccc2nc3[nH]c(=O)[nH]c3cc2c1 [Example 10]
2. CN(C(=O)CCCOc1ccc2nc3nc(O)n(C)c3cc2c1)C1CCCCC1 [Example 31]
3. CN(C(=O)CCCOc1ccc2nc3nc(O)n(C)c3cc2c1)C1CCCCCC1 [Example 23]
4. COC(=O)CN(C(=O)CCCOc1ccc2nc3[nH]c(=O)[nH]c3cc2c1)C1CCCCC1 [Example 21]
5. O=c1[nH]c2cc3cc(OCCCCS(=O)(=O)c4ccccc4)ccc3nc2[nH]1 [Example 35]

1. -14
2. -36
3. -16
4. -26
5. -10

For every item in the list below, what is its measured change in vivo at 3 mg/kg?
1. O=C(CCCOc1ccc2nc3[nH]c(=O)[nH]c3cc2c1)NC1CCCCC1 [Example 18]
2. CN(C(=O)CCCCOc1ccc2nc3[nH]c(=O)n(C)c3cc2c1)C1CCCCCC1 [Example 28]
3. O=C(CCCOc1ccc2nc3[nH]c(=O)[nH]c3cc2c1)N1CCOCC1 [Example 15]

-8
-12
-5
